tested on: CHO (chinese hamster ovary); assay: Cell proliferation inhibition, Cell Titer-Glo, CHO; format: cell-based; conditions: Cricetulus griseus; cell proliferation assay, CHO cells
REPORTED_PROPERTY: IC50

// known answers, use as guide
>  <COMPOUND>
CN1CCC(N2Cc3cc4nc(-c5c(NC[C@@H](O)COc6cc(F)ccc6Cl)cc[nH]c5=O)[nH]c4cc3C2=O)CC1 [compound 150]

>  <RESULT>
> 15 µM

$$$$
>  <COMPOUND>
CN1CCC(N2Cc3cc4nc(-c5c(NC[C@@H](O)COc6ccccc6C(F)(F)F)cc[nH]c5=O)[nH]c4cc3C2=O)CC1 [compound 149]

>  <RESULT>
> 15 µM

$$$$
>  <COMPOUND>
Cc1ccc(F)c(OC[C@H](O)CNc2cc[nH]c(=O)c2-c2nc3cc4c(cc3[nH]2)C(=O)N(C2CCN(C)CC2)C4)c1Cl [compound 147]

>  <RESULT>
> 15 µM

$$$$
>  <COMPOUND>
CN1CCC(N2Cc3cc4nc(-c5c(NC[C@@H](O)COc6ccc(F)cc6F)cc[nH]c5=O)[nH]c4cc3C2=O)CC1 [compound 148]

>  <RESULT>
5 to 15 µM

$$$$
>  <COMPOUND>
CN1CCC(N2Cc3cc4[nH]c(-c5c(NC[C@@H](O)COc6ccc(F)cc6Br)cc[nH]c5=O)nc4cc3C2=O)CC1 [compound 165]

>  <RESULT>
5 to 15 µM

$$$$

Could I get IC50 for every one of these entries?
1. CN1CCC(N2Cc3cc4[nH]c(-c5c(NC[C@@H](O)COc6ccccc6Br)cc[nH]c5=O)nc4cc3C2=O)CC1 [compound 167]
2. CN1CCC(N2Cc3cc4[nH]c(-c5c(NC[C@@H](O)COc6ccc7c(c6Cl)OCO7)cc[nH]c5=O)nc4cc3C2=O)CC1 [compound 163]

Response line:
1: > 15 µM; 2: > 15 µM

Please give IC50 for each item listed below.
1. COc1cccc(OC[C@H](O)CNc2cc[nH]c(=O)c2-c2nc3cc4c(cc3[nH]2)C(=O)N(C2CCN(C)CC2)C4)c1C [compound 159]
2. Cc1ccc(OC[C@H](O)CNc2cc[nH]c(=O)c2-c2nc3cc4c(cc3[nH]2)CN(C2CCN(C)CC2)C4=O)c(Br)c1 [compound 166]
3. CCc1cc2c(cc1OC[C@H](O)CNc1cc[nH]c(=O)c1-c1nc3cc4c(cc3[nH]1)C(=O)N(C1CCN(C)CC1)C4)OCO2 [compound 156]
4. COc1ccc(OC[C@H](O)CNc2cc[nH]c(=O)c2-c2nc3cc4c(cc3[nH]2)CN(C2CCN(C)CC2)C4=O)c(Cl)c1 [compound 146]
5. CCN1CCC(N2C(=O)c3cc4nc(-c5c(NC[C@@H](O)COc6ccc(C)cc6C)cc[nH]c5=O)[nH]c4cc3C2=O)CC1 [compound 143]
6. CN1CCC(N2Cc3cc4nc(-c5c(NC[C@@H](O)COc6cc(C(F)(F)F)ccc6Cl)cc[nH]c5=O)[nH]c4cc3C2=O)CC1 [compound 151]
7. CN1CCC(N2Cc3cc4[nH]c(-c5c(NC[C@@H](O)COc6c(F)cc(F)cc6Br)cc[nH]c5=O)nc4cc3C2=O)CC1 [compound 164]
8. CC(=N)N1CCC(N2C(=O)c3cc4nc(-c5c(NC[C@@H](O)COc6ccc(C)cc6C)cc[nH]c5=O)[nH]c4cc3C2=O)CC1 [compound 161]

Response line:
> 15 µM
5 to 15 µM
> 15 µM
> 15 µM
> 15 µM
> 15 µM
5 to 15 µM
> 15 µM
